System: Sam68 (KHDRBS1)
Assay: compounds binding KHDRBS1 protein – biochemical, small-molecule microarray, 635 nm fluorescence, primary screen (AID 1125);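 further: score merges 667 nm channel intensity with signal to noise over triplicate slides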
Conditions: higher = more signal
Measured endpoint: composite z-score
// return just the number, without any unit appended

q: Reported composite z-score, molecule O=C1C2C=CC(C(O)c3ccc(-c4ccccc4)s3)N(Nc3ccccc3)C2C(=O)N1c1ccccc1 (stereo unspecified) : ____
a: 1.31

q: Moving on to `O=C1O[C@H](c2ccccc2)[C@H](c2ccccc2)N2[C@H]1[C@@H](C(=O)N1CCN(c3ncccn3)CC1)[C@]1(C(=O)Nc3ccc(C#CC4=CCCCC4)cc31)[C@H]2c1ccccc1OCCO`
a: 1.28

q: Again, but for `C=CC[C@@]1(C(=O)N2CCCCC2)N=C(c2ccc(OCCCO)cc2)O[C@@H]1c1ccccc1CN=[N+]=[N-]`
a: 1.29

q: Next: `COc1cc2c(cc1OC)CN(C(=O)[C@H]1[C@@H]3C(=O)O[C@@H](c4ccccc4)[C@@H](c4ccccc4)N3[C@@H](c3ccccc3OCCO)[C@]13C(=O)Nc1ccc(C#CCCO)cc13)CC2`
a: 1.33

q: Next molecule: `COc1ccc([Si](C)(C)[C@@H]2[C@@H](CCn3cc(CCO)nn3)O[C@]3(C(=O)N(Cc4cccc(N5C(=O)c6cccc7cccc5c67)c4)c4ccccc43)[C@H]2C)cc1`
a: 1.29

q: Next molecule: Cc1ccc(C2C3C(=O)CC4C(=O)N(c5ccccc5)C(=O)C4C3CN2S(=O)(=O)c2ccc(C)cc2)cc1 (stereo unspecified)
a: 1.17

====

// z-score lookup, one value per entry
Experiment: ATP-based viability of Huh7 replicon cells – cell-based, CellTiter-Glo luminescence, basal, 48 h, cytotoxicity control for HCV replication inhibitor project, primary screen (AID 1143);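 further: Huh7 hepatoma cells carrying a hepatitis C replication reporter with no stimulus; test concentration not given here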
Conditions: higher = more signal, called active from +8 up or from −8 down
Give the figure by itself; no unit, no explanation.

Solved entries:
>  <Compound>
O=C(CS)NCCCCCNC(=O)[C@@H]1C[C@@H]2C(=O)NCC(=O)N2[C@@H]1c1cccc(OCCO)c1

>  <Measured endpoint>
z-score

>  <Assay value>
-0.556

$$$$
>  <Compound>
CCCC=C(CCC)[C@@H](NS(=O)(=O)c1ccc(Cl)cc1)c1ccc(C(=O)OC)cc1

>  <Measured endpoint>
z-score

>  <Assay value>
-0.296

$$$$
>  <Compound>
COc1ccc([Si](C)(C)[C@@H]2[C@@H](CC(=O)N3Cc4ccccc4C[C@H]3CO)O[C@]3(C(=O)N(Cc4cccc(N5CCC5=O)c4)c4ccccc43)[C@H]2C)cc1

>  <Measured endpoint>
z-score

>  <Assay value>
-3.42

$$$$

q: Suppose we examine the compound CCCCN1CC=CC23O[C@@H]4C=CCCOC(=O)C4[C@H]2C(=O)N(CCCCCO)[C@@H]3C1=O (some centres undefined) ; what z-score value has been reported?
a: 0.342

====

Test system: Inhibin beta A chain (activin A)
Test: small molecules binding activin A – biochemical, small-molecule microarray, 635 nm fluorescence scan, primary screen (AID 1107);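 further: mouse activin A protein probed at 4.33 µg/mL on printed slides; score merges bound-protein fluorescence near 667 nm with spot signal-to-noise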
Conditions: INHBA, higher = more signal
Measured endpoint: composite z-score
Lab note: jot down the number only; don't add units.

Worked examples follow.
>  <Molecule>
Cc1ccc(S[C@]2(C(=O)O)CC(=O)N(Cc3ccccc3C(F)(F)F)[C@@H]2c2ccc(CO)cc2I)cc1

>  <Measured endpoint>
composite z-score

>  <Assay value>
1.16

$$$$
>  <Molecule>
O=C1NC(=O)C2C1C=CC(C(O)c1ccc(I)cc1)N2Nc1ccccn1 (configuration not stated)

>  <Measured endpoint>
composite z-score

>  <Assay value>
1.14

$$$$

q: Give its composite z-score value. Item: `COC(=O)c1c(CC[C@@H](CO)NC(=O)N[C@@H](Cc2ccccc2)Cn2cc(-c3ccccn3)nn2)oc(C(=O)N2CCOCC2)c1C(=O)OC`
a: 0.119

q: Now try CCCCN1CC=CC23O[C@@H]4C=CCCOC(=O)C4[C@H]2C(=O)N(CCCCCO)[C@@H]3C1=O (some centres not stated) .
a: 0.26
